Readings of percent of parent for the listed variants
B1: unnamed (parent)
chain 1: MSMPDAMPLPGVGEELKQAKEIEDAEKYSFMATVTKAPKKQIQFADDMQEFTKFPTKTGRRSLSRSISQSSTDSYSSAASYTDSSDDEVSPREKQQTNSKGSSNFCVKNIKQAEFGRREIEIAEQDMSALISLRKRAQGEKPLAGAKIVGCTHITAQTAVLIETLCALGAQCRWSACNIYSTQNEVAAALAEAGVAVFAWKGESEDDFWWCIDRCVNMDGWQANMILDDGGDLTHWVYKKYPNVFKKIRGIVEESVTGVHRLYQLSKAGKLCVPAMNVNDSVTKQKFDNLYCCRESILDGLKRTTDVMFGGKQVVVCGYGEVGKGCCAALKALGAIVYITEIDPICALQACMDGFRVVKLNEVIRQVDVVITCTGNKNVVTREHLDRMKNSCIVCNMGHSNTEIDVTSLRTPELTWERVRSQVDHVIWPDGKRVVLLAEGRLLNLSCSTVPTFVLSITATTQALALIELYNAPEGRYKQDVYLLPKKMDEYVASLHLPSFDAHLTELTDDQAKYLGLNKNGPFKPNYYRY
chain 2: MATPSNLGSSVLASKTKTKKKHFVAQKVKLFRASDPLLSVLMWGVNHSINELSHVQIPVMLMPDDFKAYSKIKVDNHLFNKENMPSHFKFKEYCPMVFRNLRERFGIDDQDFQNSLTRSAPLPNDSQARSGARFHTSYDKRYVIKTITSEDVAEMHNILKKYHQYIVECHGVTLLPQFLGMYRLNVDGVEIYVIVTRNVFSHRLSVYRKYDLKGSTVAREASDKEKAKELPTLKDNDFINEGQKIYIDDSNKKIFLEKLKKDVEFLAQLKLMDYSLLVGIHDVERAEQEEVECEENEGEEEGESDGAHPIGTPPDSPGNTLNSSPPLAPGEFDPNIDVYAIKCHENAPRKEVYFMAIIDILTHYDAKKKAAHAAKTVKHGAGAEISTVNPEQYSKRFLDFIGHILT

Variants of: B1
Test: co-immunoprecipitation, Western blot quantification
Conditions: with partner chain of the complex shown; COS-7 cells; n = 4; parent: 100; read off a plot

Worked examples follow.
# mutation, reported-value
records = [
    ("chain 1 S64A", "95 % of WT"),
    ("chain 1 S84A", "100 % of WT"),
    ("chain 1 S66A", "71 % of WT"),
    ("chain 1 S77A", "11 % of WT"),
    ("chain 1 S85A", "96 % of WT"),
]

Please supply the value of reported percent of parent for the item chain 1 S80A
79 % of WT

Provide one value: measured percent of parent of chain 1 S90A
130 % of WT

Specify measured percent of parent for chain 1 S74G .
42 % of WT

State its percent of parent for this variant: chain 1 S76G
51 % of WT

State, in one line, measured percent of parent of chain 1 S70A
75 % of WT

Dear colleague, please send me the reported percent of parent for chain 1 T72A when you can.
67 % of WT

// fetch percent of parent given entry chain 1 S68A
3 % of WT

Quote percent of parent reported for chain 1 T82A please.
107 % of WT

Report percent of parent for chain 1 S71A
3 % of WT
